- system: PTHR1 (Rattus norvegicus, UniProt P25961)
- Sequence (P25961 27-591): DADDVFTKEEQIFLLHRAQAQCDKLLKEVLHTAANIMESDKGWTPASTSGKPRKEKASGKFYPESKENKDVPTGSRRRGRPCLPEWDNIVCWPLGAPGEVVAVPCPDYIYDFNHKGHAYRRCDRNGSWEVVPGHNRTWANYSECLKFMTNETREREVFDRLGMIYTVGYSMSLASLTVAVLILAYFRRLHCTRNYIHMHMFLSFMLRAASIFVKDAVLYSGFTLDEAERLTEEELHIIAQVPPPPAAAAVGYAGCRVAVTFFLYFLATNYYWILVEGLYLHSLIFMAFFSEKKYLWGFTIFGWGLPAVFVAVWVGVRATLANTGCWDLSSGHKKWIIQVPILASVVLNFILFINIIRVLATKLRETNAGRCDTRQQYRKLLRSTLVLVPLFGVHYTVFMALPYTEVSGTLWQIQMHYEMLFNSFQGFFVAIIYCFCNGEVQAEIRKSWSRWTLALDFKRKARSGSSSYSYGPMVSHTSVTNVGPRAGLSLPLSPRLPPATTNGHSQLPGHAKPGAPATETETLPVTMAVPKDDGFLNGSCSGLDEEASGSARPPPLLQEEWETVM
* marks the point of attachment. Palmitoyl = CCCCCCCCCCCCCCCC(=O)*
property: Fold Shift of EC50
Could you keep your reply to the number by itself?

substance	property	test.result
DTRQQYRKLLKSTL [Compound 56]	Fold Shift of EC50	1.9

(Q) Output measured Fold Shift of EC50 for this item: TNAGRSDTRQQYRF [Compound 70]
(A) 2

(Q) Output measured Fold Shift of EC50 for this item: NGEVQAEIKKSWSRWTLA [Compound 98]
(A) 1

(Q) Output measured Fold Shift of EC50 for this item: NIVRVLATKLRETNAGRSD [Compound 44]
(A) 2

(Q) Output measured Fold Shift of EC50 for this item: Pal-GSEKKYLWGFTVF-amide (Palmitoyl-GSEKKYLWGFTVF-NH2; SMILES CCCCCCCCCCCCCCCC(=O)NCC(=O)N[C@@H](CO)C(=O)N[C@@H](CCC(=O)O)C(=O)N[C@@H](CCCCN)C(=O)N[C@@H](CCCCN)C(=O)N[C@@H](Cc1ccc(O)cc1)C(=O)N[C@@H](CC(C)C)C(=O)N[C@@H](Cc1c[nH]c2ccccc12)C(=O)NCC(=O)N[C@@H](Cc1ccccc1)C(=O)N[C@H](C(=O)N[C@H](C(=O)N[C@@H](Cc1ccccc1)C(N)=O)C(C)C)[C@@H](C)O) [Compound 41]
(A) 0.9

(Q) Output measured Fold Shift of EC50 for this item: GSEKKYLWGFT [Compound 42]
(A) 1.3

(Q) Output measured Fold Shift of EC50 for this item: RETNAGRSDTRQQRKLLKS [Compound 48]
(A) 7

(Q) Output measured Fold Shift of EC50 for this item: SGRRLHSTRNYIHMH [Compound 17]
(A) 2.8

Data origin, for the record: patent US20110294738A1
